# test: qHTS assay to identify small molecule antagonists of the glucocorticoid receptor (GR) signaling pathway - cell viability counter screen (AID 720693); note: nearly all actives have a fitted effect of over 55% in size
# recorded_conditions: GR-bla HeLa viability, CellTiter-Glo luminescence, 18 h, with 5 nM dexamethasone present; series mostly up to 58.5 µM
# From the text: National Center for Advancing Translational Sciences [NCATS] NIH Chemical Genomics Center [NCGC] U.S. Environmental Protection Agency [EPA] National Institutes of Environmental Health Sciences [NIEHS] National Toxicology Program [NTP] U.S. Food and Drug Administration [FDA] The Glucocorticoid receptor (GR) is one of the members of the nuclear receptor family of ligand-dependent transcription factors. […] The activation of the reporter gene under culture conditions can be detected by fluorescence intensity. […]
Inconclusive results are not listed. Active and inactive are the calls of the source. Calls come from the whole dose curve; as a rule, active = well fitted cell-killing curve with a large enough effect in the repeat runs; inconclusive = weak or mixed curves, or effect the other way; inactive = no such curve, though single readings can be large or run the other way.
Could you please pick one outcome from this set? yes (1) for active, no (0) for inactive

{"columns": ["compound", "classification"],
 "data": [
  ["CCC(=O)NS(=O)(=O)c1ccc(-c2c(-c3ccccc3)noc2C)cc1", "no (0)"],
  ["C/C(=C(\\CCOC(=O)c1ccccc1)SS/C(CCOC(=O)c1ccccc1)=C(/C)N(C=O)Cc1cnc(C)nc1N)N(C=O)Cc1cnc(C)nc1N", "no (0)"],
  ["CC1=C(/C=C/C(C)=C/C=C/C(C)=C/C=C/C=C(C)/C=C/C=C(C)/C=C/C2=C(C)C(=O)CCC2(C)C)C(C)(C)CCC1=O", "no (0)"],
  ["CCNC(=O)[C@@H]1CCCN1C(=O)[C@H](CCCN=C(N)N)NC(=O)[C@H](CC(C)C)NC(=O)[C@@H](CC(C)C)NC(=O)[C@H](Cc1ccc(O)cc1)NC(=O)[C@H](CO)NC(=O)[C@H](Cc1c[nH]c2ccccc12)NC(=O)[C@H](Cc1cnc[nH]1)NC(=O)[C@@H]1CCC(=O)N1", "no (0)"],
  ["CCCOc1cc(N)ccc1C(=O)OCCN(CC)CC", "no (0)"]
]}

Hello, I am checking results. What call was entered for OC(CN1CCCCC1)c1cc(-c2ccccc2)on1 (configuration not stated) ?
no (0)

Which outcome was assigned to `CO[C@H]1C[C@H](O[C@@H]2/C(C)=C/C[C@@H]3C[C@@H](C[C@]4(CC[C@H](C)[C@@H](C5CCCCC5)O4)O3)OC(=O)[C@@H]3C=C(C)/C(=N/O)[C@H]4OC/C(=C\C=C\[C@@H]2C)[C@]43O)O[C@@H](C)[C@@H]1O` in this test?
no (0)

Per the assay record, what outcome was assigned to `O=C(O)[C@H](CC(=O)N1C[C@H]2CCCC[C@H]2C1)Cc1ccccc1` ?
no (0)

For this compound, state the assay outcome: CC1(C)S[C@@H]2[C@H](NC(=O)C(C(=O)Oc3ccc4c(c3)CCC4)c3ccccc3)C(=O)N2[C@H]1C(=O)O (some centres not stated)
no (0)

Which outcome did this test record for the compound CC(CCc1ccc(O)cc1)NCC(O)c1ccc(O)cc1 (configuration not stated) ?
no (0)

For `NCCCC[C@H](N)C(=O)O` , what call appears in the results of this test?
no (0)

Hello, I am checking results. What call was entered for `CCCCCCCCCCCCCC[n+]1ccc(C)cc1` ?
yes (1)

Assay outcome for CO[C@@H]1[C@@H](O[C@@H]2O[C@H](C)[C@@H](O[C@H]3C[C@@](C)(O)[C@@H](OC(=O)CC(C)C)[C@H](C)O3)[C@H](N(C)C)[C@H]2O)[C@@H](CC=O)C[C@@H](C)C(=O)/C=C/C2OC2C[C@@H](C)OC(=O)C[C@H]1OC(C)=O (some centres not stated) : what was it?
no (0)

From: PubChem BioAssay (Tox21)
